tested on: NQO1 specific enzyme activity in BEAS-2B cells (marker for NRF2 activation); assay: BEAS-2B NQO1 MTT Assay; assay type: cell-based; details: Homo sapiens, BEAS-2B, 48 h, NQO1 specific activity induction, 48 hours with compound
pEC50: −log10 of the molar value.

{"COMPOUND STRUCTURE": "CC[C@@H]1CN(Cc2cc([C@@H](CC(=O)O)c3ccc4c(nnn4CC)c3C)sc2C)S(=O)(=O)c2cccnc2O1", "pEC50": "6.00 to 7.00"}
{"COMPOUND STRUCTURE": "CC[C@H]1Cc2ncccc2S(=O)(=O)N(Cc2nc([C@@H](c3ccc4c(nnn4CC)c3C)C(C)(C)C(=O)O)sc2C)C1", "pEC50": "> 9.00"}
{"COMPOUND STRUCTURE": "CCn1nnc2c(C)c([C@H](c3cc(CN4C[C@H](C)Cc5ncccc5S4(=O)=O)c(C)s3)C(C)(C)C(=O)O)ccc21", "pEC50": "8.00 to 9.00"}
{"COMPOUND STRUCTURE": "CC[C@@H]1CN(Cc2cc([C@H](CC(=O)O)c3ccc4c(nnn4CC)c3C)sc2Cl)S(=O)(=O)c2ccccc2O1", "pEC50": "7.00 to 8.00"}
{"COMPOUND STRUCTURE": "CCn1nnc2c(C)c([C@H](c3cc(CN4CCC[C@H](n5cccn5)C4)c(C)s3)C(C)(C)C(=O)O)ccc21", "pEC50": "6.00 to 7.00"}
{"COMPOUND STRUCTURE": "CC[C@@H]1CN(Cc2nc([C@@H](c3ccc4c(nnn4CC)c3C)C(C)(C)C(=O)Nc3cccnc3)sc2C)S(=O)(=O)c2ncccc2O1", "pEC50": "6.00 to 7.00"}
{"COMPOUND STRUCTURE": "CC[C@@H]1CN(Cc2cc([C@@H](c3ccc4c(nnn4CC)c3C)C(C)(C)C(=O)Nc3cccnc3)sc2C)S(=O)(=O)c2ccccc2O1", "pEC50": "8.00 to 9.00"}
{"COMPOUND STRUCTURE": "CC[C@H]1Cc2ccc(C(F)(F)F)cc2S(=O)(=O)N(Cc2nc([C@@H](c3ccc4c(nnn4CC)c3C)C(C)(C)C(=O)O)sc2C)C1", "pEC50": "> 9.00"}
{"COMPOUND STRUCTURE": "CC[C@@H]1CN(Cc2cc([C@@H](c3ccc4c(nnn4CC)c3C)C(C)(C)C(=O)O)sc2C)S(=O)(=O)c2ccccc2O1", "pEC50": "> 9.00"}

----------
test system: NQO1 specific enzyme activity in BEAS-2B cells (marker for NRF2 activation); assay: BEAS-2B NQO1 MTT Assay; format: cell-based; settings: Homo sapiens, BEAS-2B, 48 h, NQO1 specific activity induction, 48 hours with compound

{"COMPOUND STRUCTURE": "CCn1nnc2c(C)c([C@H](c3cc(CN4C[C@@H](C)Cc5ccc(C(F)(F)F)cc5S4(=O)=O)n(C)n3)C(C)(C)C(=O)O)ccc21", "EC50": "1 to 10 nM"}
{"COMPOUND STRUCTURE": "CC[C@@H]1CN(Cc2cc([C@H](CC(=O)O)c3ccc4c(nnn4CC)c3C)sc2Cl)S(=O)(=O)c2cccnc2O1", "EC50": "10 to 100 nM"}
{"COMPOUND STRUCTURE": "CC[C@H]1Cc2ccc(C(F)(F)F)cc2S(=O)(=O)N(Cc2nc([C@@H](c3ccc4c(nnn4CC)c3C)C(C)(C)C(=O)Nc3cccnc3)sc2C)C1", "EC50": "10 to 100 nM"}
{"COMPOUND STRUCTURE": "CCn1nnc2c(C)c([C@H](c3cc(CN4CC(=O)N(C)CC(C)(C)C4)c(C)s3)C(C)(C)C(=O)O)ccc21", "EC50": "1 to 10 nM"}
{"COMPOUND STRUCTURE": "CC[C@@H]1CN(Cc2cc([C@H](c3ccc4c(nnn4CC)c3C)C(C)(C)C(=O)O)sc2Cl)S(=O)(=O)c2cnccc2O1", "EC50": "100 to 1000 nM"}
{"COMPOUND STRUCTURE": "CC[C@H]1Cc2ccc(C(F)(F)F)cc2S(=O)(=O)N(Cc2cc([C@@H](c3ccc4c(nnn4CC)c3C)C(C)(C)C(=O)O)sc2C)C1", "EC50": "< 1 nM"}
{"COMPOUND STRUCTURE": "CCn1nnc2c(C)c([C@H](c3nc(CN4C[C@@H](C)Cc5cc(C(F)(F)F)ccc5S4(=O)=O)c(C)s3)C(C)(C)C(=O)Nc3cccnc3)ccc21", "EC50": "10 to 100 nM"}
{"COMPOUND STRUCTURE": "CCn1nnc2c(C)c([C@H](c3cc(CN4CC(C)(C)Oc5ncccc5S4(=O)=O)c(C)s3)C(C)(C)C(=O)O)ccc21", "EC50": "1 to 10 nM"}
{"COMPOUND STRUCTURE": "CCn1nnc2c(F)c([C@@H](c3cc(CN4C[C@@H](C)Cc5ccc(C(F)(F)F)cc5S4(=O)=O)c(Cl)s3)C(C)(C)C(=O)O)ccc21", "EC50": "10 to 100 nM"}
{"COMPOUND STRUCTURE": "CCn1nnc2c(C)c([C@H](c3cc(CN4C[C@@H](C)Cc5ncccc5S4(=O)=O)n(C)n3)C(C)(C)C(=O)O)ccc21", "EC50": "100 to 1000 nM"}
{"COMPOUND STRUCTURE": "CC[C@@H]1CN(Cc2cc([C@H](CC(=O)O)c3ccc4c(nnn4CC)c3C)sc2Cl)S(=O)(=O)c2cnccc2O1", "EC50": "10 to 100 nM"}
{"COMPOUND STRUCTURE": "CCn1cc(CC[C@H](c2cc(CN3C[C@@H](C)Cc4ncccc4S3(=O)=O)c(C)s2)C(C)(C)C(=O)O)nn1", "EC50": "1 to 10 nM"}
{"COMPOUND STRUCTURE": "CCn1cc(CC[C@@H](c2cc(CN3C[C@@H](C)Cc4ncccc4S3(=O)=O)c(C)s2)C(C)(C)C(=O)O)nn1", "EC50": "1 to 10 nM"}
{"COMPOUND STRUCTURE": "CC[C@@H]1CN(Cc2nc([C@@H](c3ccc4c(nnn4CC)c3C)C(C)(C)C(=O)Nc3cccnc3)sc2C)S(=O)(=O)c2cccnc2O1", "EC50": "100 to 1000 nM"}
{"COMPOUND STRUCTURE": "CCn1nnc2c(F)c([C@H](c3cc(CN4C[C@@H](C)Cc5ccc(C(F)(F)F)cc5S4(=O)=O)c(Cl)s3)C(C)(C)C(=O)O)ccc21", "EC50": "< 1 nM"}
{"COMPOUND STRUCTURE": "CC[C@@H]1CN(Cc2cc([C@@H](c3ccc4c(nnn4CC)c3C)C(C)(C)C(=O)O)sc2C)S(=O)(=O)c2cnccc2O1", "EC50": "< 1 nM"}
{"COMPOUND STRUCTURE": "CC[C@@H]1CN(Cc2cc([C@H](c3ccc4c(nnn4CC)c3C)C(C)(C)C(=O)O)sc2C)S(=O)(=O)c2ccccc2O1", "EC50": "10 to 100 nM"}
{"COMPOUND STRUCTURE": "CCn1nnc2c(C)c([C@@H](c3cc(CN4C[C@@H](C)Cc5ncccc5S4(=O)=O)n(C)n3)C(C)(C)C(=O)O)ccc21", "EC50": "1000 to 10000 nM"}
{"COMPOUND STRUCTURE": "CC[C@@H]1CN(Cc2nc([C@@H](c3ccc4c(nnn4CC)c3C)C(C)(C)C(=O)O)sc2C)S(=O)(=O)c2cccnc2O1", "EC50": "1 to 10 nM"}
{"COMPOUND STRUCTURE": "CC[C@H]1Cc2ccccc2S(=O)(=O)N(Cc2nc([C@@H](c3ccc4c(nnn4CC)c3C)C(C)(C)C(=O)Nc3cccnc3)sc2C)C1", "EC50": "10 to 100 nM"}
{"COMPOUND STRUCTURE": "CC[C@@H]1CN(Cc2cc([C@H](CC(=O)O)c3ccc4c(nnn4CC)c3C)sc2C)S(=O)(=O)c2cccnc2O1", "EC50": "10 to 100 nM"}
{"COMPOUND STRUCTURE": "CC[C@H]1Cc2ncccc2S(=O)(=O)N(Cc2nc([C@@H](c3ccc4c(nnn4CC)c3C)C(C)(C)C(=O)Nc3cccnc3)sc2C)C1", "EC50": "100 to 1000 nM"}
{"COMPOUND STRUCTURE": "CCn1nnc2c(C)c([C@H](c3nc(CN4C[C@@H](C)Cc5cc(C(F)(F)F)ccc5S4(=O)=O)c(C)s3)C(C)(C)C(=O)O)ccc21", "EC50": "< 1 nM"}
{"COMPOUND STRUCTURE": "CCn1nnc2c(C)c([C@H](c3cc(CN4C[C@H](C)Cc5ccccc5S4(=O)=O)c(C)s3)C(C)(C)C(=O)O)ccc21", "EC50": "1 to 10 nM"}
{"COMPOUND STRUCTURE": "CC[C@@H]1CN(Cc2cc([C@H](c3ccc4c(nnn4CC)c3C)C(C)(C)C(=O)O)sc2Cl)S(=O)(=O)c2ccccc2O1", "EC50": "100 to 1000 nM"}
